These measurements were taken from the RNAGym collection of RNA variant scans (doi:10.1073/pnas.2313332121).

B1: TPR 5TU (parent)
chain: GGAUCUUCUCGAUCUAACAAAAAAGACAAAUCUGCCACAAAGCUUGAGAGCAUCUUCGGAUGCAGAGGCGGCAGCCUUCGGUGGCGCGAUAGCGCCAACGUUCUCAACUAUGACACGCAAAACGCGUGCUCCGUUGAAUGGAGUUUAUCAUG

Variants of: B1
Test: polymerase ribozyme fitness, log enrichment relative to wild type (log ratio); higher = more active; in vitro selection for triplet polymerase activity
This sample holds only a part of the variants without activity.

VARIANT: U6C G42U U77G C87U A122U
polymerase ribozyme fitness (log ratio): ≤ -4.2
--
VARIANT: U4A G11A A28U G65A C72U G80U G84C A91C A97C A106C C118U G141U
polymerase ribozyme fitness (log ratio): ≤ -4.2
--
VARIANT: A73G A91U
polymerase ribozyme fitness (log ratio): ≤ -4.2
--
VARIANT: C10G A30G C38A G94U C125G U144C
polymerase ribozyme fitness (log ratio): ≤ -4.2
--
VARIANT: A26U A40C C76A G92C A121C
polymerase ribozyme fitness (log ratio): ≤ -4.2
--
VARIANT: C87A C103U C108A A110C C132A
polymerase ribozyme fitness (log ratio): ≤ -4.2
--
VARIANT: C75A U90C C95U A107G U127G G141C
polymerase ribozyme fitness (log ratio): ≤ -4.2
--
VARIANT: U55A G94U G117U C131A G136A
polymerase ribozyme fitness (log ratio): ≤ -4.2
--
VARIANT: G50A C108A G124U U148G
polymerase ribozyme fitness (log ratio): ≤ -4.2
--
VARIANT: A17C C32A U53A G67A G74C U101A
polymerase ribozyme fitness (log ratio): ≤ -4.2
--
VARIANT: C38U C51U C76A C79A A97U G100A C103G A106G A120G
polymerase ribozyme fitness (log ratio): ≤ -4.2
--
VARIANT: G71C U109A U111G
polymerase ribozyme fitness (log ratio): ≤ -4.2
--
VARIANT: A20C A28U A49C U61A G92A A113G C149G
polymerase ribozyme fitness (log ratio): ≤ -4.2
--
VARIANT: A19U G71U G83C U146G
polymerase ribozyme fitness (log ratio): ≤ -4.2
--
VARIANT: C10U C38U A73G A89G A97G C116G A122U C129A
polymerase ribozyme fitness (log ratio): ≤ -4.2
--
VARIANT: C43A C87A A89G C93U
polymerase ribozyme fitness (log ratio): ≤ -4.2
--
VARIANT: G11U A23U C32U C57U G58A U77C C93G C96U A97U G100U A110U G143C
polymerase ribozyme fitness (log ratio): ≤ -4.2
--
VARIANT: A73U C76G G94A
polymerase ribozyme fitness (log ratio): ≤ -4.2
--
VARIANT: A17C C27U G71A C93G A113C U134G U151G
polymerase ribozyme fitness (log ratio): ≤ -4.2
--
VARIANT: U53A G83A C103U C132U
polymerase ribozyme fitness (log ratio): -3.25
--
VARIANT: A49U A52G C96U C99G
polymerase ribozyme fitness (log ratio): ≤ -4.2
--
VARIANT: A121G
polymerase ribozyme fitness (log ratio): -0.0563
--
VARIANT: G80U U82C
polymerase ribozyme fitness (log ratio): -1.68
--
VARIANT: G83A U134A
polymerase ribozyme fitness (log ratio): -2.04
--
VARIANT: C93G G141U
polymerase ribozyme fitness (log ratio): -2.01
--
VARIANT: A12U C18U A47G C85A C93A A98C A121U
polymerase ribozyme fitness (log ratio): ≤ -4.2
--
VARIANT: C8U C35U A41C G58C G68U G86U C114A G140A
polymerase ribozyme fitness (log ratio): ≤ -4.2
--
VARIANT: G62C G92C
polymerase ribozyme fitness (log ratio): -3.09
--
VARIANT: G84A A115U G126A
polymerase ribozyme fitness (log ratio): -4.17
--
VARIANT: C10G A41G A115G
polymerase ribozyme fitness (log ratio): ≤ -4.2
--
VARIANT: U9A A39U U61A C76U C93A A120U G141A
polymerase ribozyme fitness (log ratio): ≤ -4.2
--
VARIANT: C76A A98U G136A U145A
polymerase ribozyme fitness (log ratio): 0.194
--
VARIANT: C96U G124A A147U
polymerase ribozyme fitness (log ratio): 0.911
